Molecular target: MASP-2 CCP2-SP (Homo sapiens (Human))
Sequence (O00187 445-686): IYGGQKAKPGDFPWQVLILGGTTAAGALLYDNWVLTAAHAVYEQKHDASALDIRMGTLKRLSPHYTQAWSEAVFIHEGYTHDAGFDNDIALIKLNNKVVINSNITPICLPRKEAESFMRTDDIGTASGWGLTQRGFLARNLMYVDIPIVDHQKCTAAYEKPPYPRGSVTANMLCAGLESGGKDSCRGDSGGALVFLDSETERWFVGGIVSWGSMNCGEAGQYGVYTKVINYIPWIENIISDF
Sequence (O00187 364-432 partner): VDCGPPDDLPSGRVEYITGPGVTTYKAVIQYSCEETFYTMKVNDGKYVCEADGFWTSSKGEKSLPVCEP
Test: MASP-2 co-crystallization, X-ray crystallography and structure analysis (H-bonds, van der Waals contacts)
Conditions: Table A5-2 pharmacophore distance, S3/S4 region
Where a name gives a salt, the structure may show the parent alone.
MEASURED_PROPERTY: d(O2,N2)
Please give only the number in your answer, with no unit.

Reference set (5 entries):
INSERT INTO assay_data (molecule, system_under_test, measured_property, result_value) VALUES
  ('C[C@H](NC(=O)[C@H]1C[C@@H](c2ccccc2)CCN1)C(=O)NCc1cc(Cl)ccc1O.Cl [1078_7]', 'MASP-2 CCP2-SP (Homo sapiens (Human))', 'd(O2,N2)', 3.04),
  ('Cc1nc(N)ccc1CNC(=O)[C@H](C)NC(=O)[C@H]1C[C@@H](c2ccccc2)CCN1 [compound 1253, Dihydrochloride]', 'MASP-2 CCP2-SP (Homo sapiens (Human))', 'd(O2,N2)', 2.70),
  ('C[C@H](NC(=O)[C@H]1C[C@@H](c2ccccc2)CCN1)C(=O)NCc1ccc(C(=N)N)cc1 (stereo in doubt)', 'MASP-2 CCP2-SP (Homo sapiens (Human))', 'd(O2,N2)', 2.83),
  ('C[C@H](NC(=O)[C@@H](CCc1ccccc1)NCc1ccc(C(=O)N2CCOCC2)cc1)C(=O)NCc1ccc(C(=N)N)cc1.Cl.Cl', 'MASP-2 CCP2-SP (Homo sapiens (Human))', 'd(O2,N2)', 2.99),
  ('C[C@H](NC(=O)[C@H](N)C1Cc2ccccc2C1)C(=O)NCc1ccc2c(N)nccc2c1.Cl.Cl [1088_B]', 'MASP-2 CCP2-SP (Homo sapiens (Human))', 'd(O2,N2)', 2.68);

Which measured d(O2,N2) value corresponds to CC(NC(=O)C1CC(Cc2ccccc2)CN1)C(=O)NCc1cnc2c(c1)c(Cl)cn2C.Cl.Cl (mixture of isomers) [1450_A] ? 2.81

Then C[C@H](NC(=O)[C@H](N)C1Cc2ccccc2C1)C(=O)NCc1ccc2c(N)nccc2c1.Cl.Cl [1088_A] ? 2.73

Then C[C@H](NC(=O)[C@H]1C[C@@H](c2ccccc2)CCN1)C(=O)NCc1cc(Cl)ccc1O.Cl [1078_2] ? 2.72
